- System: HeLa
- METHOD DESCRIPTION: Cytotoxicity against human HeLa cells after 72 hrs by resazurin based fluorescence assay
- Type: functional, cell-based
- CONDITION NOTES: Homo sapiens, HeLa, 72 h
Examples of compounds with documented IC50 follow.

[[record]]
smiles_input = "COc1ccc(-c2cccc(-c3c(OC)cc(OC)cc3OC)n2)c(OC)c1"
assay_result = "> 25 µM"


Which IC50 value belongs to COc1ccc(-c2cccc(Br)n2)cc1OC ?
> 50 µM

Which IC50 value belongs to COc1cc(-c2cccc(-c3cc(OC)c(OC)c(OC)c3)n2)cc(OC)c1OC ?
1 µM
